Data origin: ChEMBL document CHEMBL1201861

Tested on: CHP-134
Assay: SANGER: Inhibition of human CHP-134 cell growth in a cell viability assay.
Type: functional, cell-based
OBSERVABLE: IC50

INSERT INTO measurements (compound, reading) VALUES
  ('CC(=O)c1c(C)c2cnc(Nc3ccc(N4CCNCC4)cn3)nc2n(C2CCCC2)c1=O [PALBOCICLIB]', '1.12 µM');

====

Tested on: NCI-H2405;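 note: growth inhibition of the human cell line, read out with a cell viability assay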
Assay: cells
Format: functional, cell-based
Settings: Homo sapiens
Description: SANGER: Inhibition of human NCI-H2405 cell growth in a cell viability assay.
pIC50: −log10 of the molar value.
// pIC50 lookup, one value per entry
OBSERVABLE: pIC50

INSERT INTO results (compound, readout_relation, reading) VALUES
  ('Cn1c(=O)n(-c2ccc(C(C)(C)C#N)cc2)c2c3cc(-c4cnc5ccccc5c4)ccc3ncc21', '=', 7.26),
  ('COc1cc(Nc2c(C#N)cnc3cc(OCCCN4CCN(C)CC4)c(OC)cc23)c(Cl)cc1Cl', '<', 5.70),
  ('C/C(O)=C(\C#N)C(=O)Nc1cc(Br)ccc1Br', '<', 4.80),
  ('Fc1cc(-c2cc[nH]/c(=N/c3ccc(-n4cnc(N5CCOCC5)n4)cc3)n2)cc(N2CCOCC2)c1', '=', 5.92),
  ('C[C@]12O[C@H](C[C@]1(O)CO)n1c3ccccc3c3c4c(c5c6ccccc6n2c5c31)CNC4=O', '=', 5.74),
  ('CC[C@]1(O)C[C@@H]2CN(CCc3c([nH]c4ccccc34)[C@@](C(=O)OC)(c3cc4c(cc3OC)N(C)[C@H]3[C@@](O)(C(=O)OC)[C@H](OC(C)=O)[C@]5(CC)C=CCN6CC[C@]43[C@@H]65)C2)C1', '<', 7.00),
  ('C[C@]1(c2nc3c(C(N)=O)cccc3[nH]2)CCCN1', '<', 5.30),
  ('CO[C@@]12[C@H](COC(N)=O)C3=C(C(=O)C(C)=C(N)C3=O)N1C[C@@H]1N[C@@H]12', '=', 6.53),
  ('O=c1cc(N2CCOCC2)oc2c(-c3cccc4c3sc3ccccc34)cccc12', '<', 5.70),
  ('CC(=O)c1c(C)c2cnc(Nc3ccc(N4CCNCC4)cn3)nc2n(C2CCCC2)c1=O', '<', 5.40);

====

System: TE-8;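 note: growth inhibition of TE-8 cells, measured with a cell viability readout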
Test: cells
Assay type: functional, cell-based
Conditions: Homo sapiens
Description: SANGER: Inhibition of human TE-8 cell growth in a cell viability assay.
OBSERVABLE: IC50 (nM)

INSERT INTO assay_data (molecule, readout_relation, reading) VALUES
  ('CC[C@]1(O)C[C@@H]2CN(CCc3c([nH]c4ccccc34)[C@@](C(=O)OC)(c3cc4c(cc3OC)N(C)[C@H]3[C@@](O)(C(=O)OC)[C@H](OC(C)=O)[C@]5(CC)C=CCN6CC[C@]43[C@@H]65)C2)C1 [VINBLASTINE]', '=', 6.16),
  ('Cn1c(=O)n(-c2ccc(C(C)(C)C#N)cc2)c2c3cc(-c4cnc5ccccc5c4)ccc3ncc21 [DACTOLISIB]', '=', 66.5),
  ('CC(=O)c1c(C)c2cnc(Nc3ccc(N4CCNCC4)cn3)nc2n(C2CCCC2)c1=O [PALBOCICLIB]', '=', 1420),
  ('C/C(O)=C(\C#N)C(=O)Nc1cc(Br)ccc1Br', '>', 16000),
  ('COc1cc(Nc2c(C#N)cnc3cc(OCCCN4CCN(C)CC4)c(OC)cc23)c(Cl)cc1Cl [BOSUTINIB]', '>', 2000),
  ('Cn1cc(/C=C2\C(=O)Nc3cccnc32)c2ccccc21', '>', 2000),
  ('Cc1nc(Nc2ncc(C(=O)Nc3c(C)cccc3Cl)s2)cc(N2CCN(CCO)CC2)n1 [DASATINIB]', '=', 15.8);
